TARGET_OR_TEST_SYSTEM: 5HT2 receptor (Rattus norvegicus)
Sequence (P14842 whole entry): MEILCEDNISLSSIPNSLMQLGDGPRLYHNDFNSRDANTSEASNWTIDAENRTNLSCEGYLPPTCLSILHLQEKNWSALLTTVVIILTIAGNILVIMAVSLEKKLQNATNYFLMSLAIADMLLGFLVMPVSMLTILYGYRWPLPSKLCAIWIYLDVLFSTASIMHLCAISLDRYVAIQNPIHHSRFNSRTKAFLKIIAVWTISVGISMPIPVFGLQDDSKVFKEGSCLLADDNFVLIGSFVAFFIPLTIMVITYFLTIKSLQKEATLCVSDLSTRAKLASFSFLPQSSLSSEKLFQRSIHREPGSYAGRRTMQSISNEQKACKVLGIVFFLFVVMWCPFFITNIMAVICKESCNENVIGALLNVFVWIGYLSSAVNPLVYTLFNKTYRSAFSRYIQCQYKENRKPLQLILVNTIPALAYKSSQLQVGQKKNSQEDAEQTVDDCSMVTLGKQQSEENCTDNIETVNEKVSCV
log10 IC50 overview
Units before log transform: µM; reported quantity: IC50; transform: log10.

See these solved cases before continuing.
CON=C1CCn2c(=O)n(CCN3CCN(c4ccccc4OC)CC3)c(=O)c3csc1c32 | 0.30
COc1ccccc1N1CCN(CCn2c(=O)c3csc4c3n(c2=O)CC=C4)CC1 | 0.30
COc1ccccc1N1CCN(CCn2c(=O)c3csc4c3n(c2=O)CCNC4=O)CC1 | 0.30
CON=C1CCn2c(=O)n(CCN3CCN(c4cccc(Cl)c4)CC3)c(=O)c3csc1c32 | 0.00
O=C1CCn2c(=O)n(CCN3CCC(C(=O)c4ccc(F)cc4)CC3)c(=O)c3csc1c32 | -3.00

Ask | Quick check: log10 IC50 of O=C1CCn2c(=O)n(CCCCCN3CCC(=C(c4ccc(F)cc4)c4ccc(F)cc4)CC3)c(=O)c3csc1c32 ?
Reply | -1.26

Ask | Quick check: log10 IC50 of COc1ccccc1N1CCN(CCn2c(=O)c3csc4c3n(c2=O)CCC4OC(=O)c2ccccc2)CC1 (centres unmarked) ?
Reply | 0.18

Ask | Quick check: log10 IC50 of COc1ccccc1N1CCN(CCCn2c(=O)c3csc4c3n(c2=O)CCC4=O)CC1 ?
Reply | -0.52

Ask | Quick check: log10 IC50 of COc1ccccc1N1CCN(CCCCCn2c(=O)c3csc4c3n(c2=O)CCC4=O)CC1 ?
Reply | 0.18

Ask | Quick check: log10 IC50 of O=C1CCn2c(=O)n(CCN3CCN(c4cccc(C(F)(F)F)c4)CC3)c(=O)c3csc1c32 ?
Reply | -0.15

Ask | Quick check: log10 IC50 of COc1ccccc1N1CCN(CCn2c(=O)c3csc4c3n(c2=O)CCC4=O)CC1 ?
Reply | 0.81

---

TARGET_OR_TEST_SYSTEM: 5HT1A receptor (Rattus norvegicus)
Construct: Membrane fragments were prepared from the frontal cortex dissected from brains obtained from female rats; from tissue; host or cells: frontal cortex, female rats
Sequence (P19327 whole entry, the tested form may be a part): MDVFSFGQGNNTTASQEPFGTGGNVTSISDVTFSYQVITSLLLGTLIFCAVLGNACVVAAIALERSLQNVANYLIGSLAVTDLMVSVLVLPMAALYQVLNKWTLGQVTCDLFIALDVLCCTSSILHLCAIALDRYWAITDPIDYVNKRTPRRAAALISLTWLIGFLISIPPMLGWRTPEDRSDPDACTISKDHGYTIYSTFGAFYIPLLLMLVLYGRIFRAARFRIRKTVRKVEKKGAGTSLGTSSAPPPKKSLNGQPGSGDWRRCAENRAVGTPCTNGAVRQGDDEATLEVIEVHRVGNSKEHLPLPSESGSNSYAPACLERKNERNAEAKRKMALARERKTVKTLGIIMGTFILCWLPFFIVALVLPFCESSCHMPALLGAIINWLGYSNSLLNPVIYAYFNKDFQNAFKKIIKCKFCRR
METHOD: Brain Serotonin 5HT1A Radioreceptor Assay (3H-80H-DPAT)
Type: binding
EXPERIMENTAL_SETUP: @ 10^-6, rat frontal cortex membranes, read-out: RECEPTOR BINDING 5HT-1A, % @ 10^-6
MEASURED_METRIC: inhibition at 1 µM (%)
Could you give me the number in %? Just the number is fine.

O=C1CCn2c(=O)n(CCN3CCC(=C(c4ccc(F)cc4)c4ccc(F)cc4)CC3)c(=O)c3csc1c32 | 47
O=C1CCn2c(=O)n(CCN3CC=C(c4ccccc4)CC3)c(=O)c3csc1c32 | 1.8
O=C1CCn2c(=O)n(CCN3CCC(C(=O)c4ccc(F)cc4)CC3)c(=O)c3csc1c32 | 35

Shift focus to the following entry.
Ask | Which measured inhibition at 1 µM belongs to CON=C1CCn2c(=O)n(CCCN3CCN(c4ccccc4OC)CC3)c(=O)c3csc1c32 , tested on 5HT1A receptor (Rattus norvegicus)?
Reply | 5.2

---

TARGET_OR_TEST_SYSTEM: alpha-1 adrenergic receptor
METHOD: Brain Alpha-1 Radioreceptor Assay (3H-prazosin)
EXPERIMENTAL_SETUP: guinea pig brain membranes, 30 minutes, 30° C., read-out: RECEPTOR BINDING ALPHA-1 (IC50)
Experimental: Membrane fragments were prepared from the brains of mature female guinea pigs after removal of the corpus striata. The alpha-1 adrenergic receptor sites were labeled with ^3 H-prazosin. Membrane fragments, ^3 H-prazosin and an unlabeled test compound were incubated for 30 minutes at 30° C. […] Specific binding was determined by the difference between total counts bound and counts bound in the presence of 10-^5 M phentolamine.
Mark each entry condition met if its IC50 sits below 20 nM, and condition not met for all others.

Ask | is_below(IC50, 20 nM) for O=C1CCn2c(=O)n(CCN3CCC(=C(c4ccc(F)cc4)c4ccc(F)cc4)CC3)c(=O)c3csc1c32 ?
Reply | condition not met

Ask | is_below(IC50, 20 nM) for COc1ccccc1N1CCN(CCn2c(=O)c3csc4c3n(c2=O)CCC4=O)CC1 ?
Reply | condition met

Ask | is_below(IC50, 20 nM) for COc1ccccc1N1CCN(CCCn2c(=O)c3csc4c3n(c2=O)CCC4=O)CC1 ?
Reply | condition not met

Ask | is_below(IC50, 20 nM) for CON=C1CCn2c(=O)n(CCN3CCN(c4cccc(Cl)c4)CC3)c(=O)c3csc1c32 ?
Reply | condition not met

Ask | is_below(IC50, 20 nM) for COc1ccccc1N1CCN(CCn2c(=O)c3csc4c3n(c2=O)CCCCC4=O)CC1 ?
Reply | condition not met

Ask | is_below(IC50, 20 nM) for COc1ccccc1N1CCN(CCn2c(=O)c3csc4c3n(c2=O)CCC4OC(=O)c2ccccc2)CC1 (stereo not shown) ?
Reply | condition met

Ask | is_below(IC50, 20 nM) for O=C1CCn2c(=O)n(CCN3CCN(c4cccc(C(F)(F)F)c4)CC3)c(=O)c3csc1c32 ?
Reply | condition not met
